Origin of values: paper PMC10573752

- target.of.assay: BACE1 (Homo sapiens, UniProt P56817)
- Sequence (P56817 46-457 limits assumed): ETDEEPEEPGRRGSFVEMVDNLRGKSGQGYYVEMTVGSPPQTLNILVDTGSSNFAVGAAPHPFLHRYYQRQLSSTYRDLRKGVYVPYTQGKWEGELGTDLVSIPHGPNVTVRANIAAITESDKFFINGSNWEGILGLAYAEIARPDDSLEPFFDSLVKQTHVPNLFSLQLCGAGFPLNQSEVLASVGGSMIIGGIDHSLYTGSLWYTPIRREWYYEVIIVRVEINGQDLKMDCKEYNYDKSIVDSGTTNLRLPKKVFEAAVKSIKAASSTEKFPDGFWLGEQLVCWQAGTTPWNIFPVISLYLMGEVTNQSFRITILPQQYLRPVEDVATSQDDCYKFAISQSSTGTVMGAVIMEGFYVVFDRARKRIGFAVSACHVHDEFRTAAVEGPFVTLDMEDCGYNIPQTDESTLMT
- assay.text: In vitro β-secretase (BACE1) activity assay kit (fluorescence)
value.type: pIC50
Please report pIC50 as the negative decimal logarithm of the molar concentration, giving only the number.

Can you share its pIC50? I mean this compound: COc1cccc(C(=O)Nc2ccc(NC(=O)c3cccc(OC)c3)cc2)c1 [JW8]
5.05

Can you share its pIC50? I mean this compound: COc1ccc(C(=O)Nc2ccc(NC(=O)c3ccc(OC)c(OC)c3)cc2)cc1OC [JW7]
4.89

Can you share its pIC50? I mean this compound: COc1cc(OC)cc(C(=O)Nc2cccc(NC(=O)c3cc(OC)cc(OC)c3)c2)c1 [JW2]
4.13

Can you share its pIC50? I mean this compound: COc1cc(CNC(=O)c2cc(OC)c(OC)c(OC)c2)cc(OC)c1OC [MB4]
4.06

Can you share its pIC50? I mean this compound: COc1cc(C(=O)Nc2cccc(NC(=O)c3cc(OC)c(OC)c(OC)c3)c2)cc(OC)c1OC [JW1]
4.26

Can you share its pIC50? I mean this compound: COc1cc(C(=O)Nc2ccc(NC(=O)c3cc(OC)c(OC)c(OC)c3)cc2)cc(OC)c1OC [JW5]
5.03

Can you share its pIC50? I mean this compound: COc1ccc(C(=O)Nc2cccc(NC(=O)c3ccc(OC)c(OC)c3)c2)cc1OC [JW3]
4.40

Can you share its pIC50? I mean this compound: COc1cccc(C(=O)Nc2cccc(NC(=O)c3cccc(OC)c3)c2)c1 [JW4]
4.09

Can you share its pIC50? I mean this compound: COc1cc(NC(=O)c2cc(OC)c(OC)c(OC)c2)cc(OC)c1OC [MB3]
4.69

Can you share its pIC50? I mean this compound: COc1cc(C(=O)Nc2cccc([N+](=O)[O-])c2)cc(OC)c1OC [MB1]
4.39

Can you share its pIC50? I mean this compound: COc1cc(OC)cc(C(=O)Nc2ccc(NC(=O)c3cc(OC)cc(OC)c3)cc2)c1 [JW6]
4.78
